Tested on: bedstraw
EXPERIMENT: Test B pre/postemergence bedstraw
Format: in vivo, Galium aparine
ASSAY CONDITIONS: Rate 62 g/ha, Postemergence; scale of 0 to 10 where 0 is no effect and 10 is complete control
Provide the recorded Bedstraw plant response rating for the entries that follow.
One number for each entry.

These solved cases illustrate the format of a correct answer.
COMPOUND	Bedstraw plant response rating
Cc1nc(C)c(Cn2c(=O)on(C(=O)N(c3ccc(Cl)cc3)C(C)C)c2=O)s1 [Compound 191]	0
CC(C)N(C(=O)n1oc(=O)n(CC2(C)COC2)c1=O)c1ccc(F)cc1 [Compound 226]	0
Cc1ccccc1-n1c(=O)on(C(=O)N(c2ccc(C(C)(C)C)cc2)C(C)C)c1=O [Compound 270]	0

Provide each entry's Bedstraw plant response rating from the list below.
1. Cc1ccccc1-n1c(=O)on(C(=O)N(c2ccc(N(C)C)cc2)C(C)C)c1=O [Compound 237]
2. CC(C)C(C)n1c(=O)on(C(=O)N(c2ccc(F)cc2F)C(C)C)c1=O (stereo not shown) [Compound 356]
3. CC(C)N(C(=O)n1oc(=O)n(C(C)C(=O)c2ccccc2)c1=O)c1ccc(F)cc1 (stereo not shown) [Compound 260]

1: 0; 2: 0; 3: 6

Consider the compound CC(C)N(C(=O)n1oc(=O)n(CC(F)(F)F)c1=O)c1ccc(F)cc1 [Compound 163] and give its measured Bedstraw plant response rating.
0

---

Test system: rape
EXPERIMENT: Test B pre/postemergence rape
Assay type: in vivo, Brassica napus
ASSAY CONDITIONS: Rate 500 g/ha, Postemergence; 0 to 10 scale (0 no effect, 10 complete control)
READOUT: Rape plant response rating
Numbers only.

These solved cases illustrate the format of a correct answer.
MOLECULE	Rape plant response rating
COc1ccc(-n2c(=O)on(C(=O)N(c3ccc(F)cc3)C(C)C)c2=O)c(C)c1 [Compound 35]	2
Cc1ccccc1-n1c(=O)on(C(=O)N(C2=CCOCC2)C(C)C)c1=O [Compound 10]	0
CC(C)N(C(=O)n1oc(=O)n(-c2ccc(OC(F)(F)F)cc2)c1=O)C1=CCOCC1 [Compound 13]	1

Consider the molecule COc1ccc(-n2c(=O)on(C(=O)N(C3=CCOCC3)C(C)C)c2=O)cc1 [Compound 6] and give its measured Rape plant response rating.
0

---

Tested on: velvetleaf
EXPERIMENT: Test B pre/postemergence velvetleaf
Format: in vivo, Abutilon theophrasti
ASSAY CONDITIONS: Rate 250 g/ha, Postemergence; scale of 0 to 10 where 0 is no effect and 10 is complete control
READOUT: Plant response rating, Velvetleaf

COMPOUND	READOUT	OBSERVED MEASUREMENT
CC(C)N(C(=O)n1oc(=O)n(CCC2OCCO2)c1=O)c1ccc(Cl)cc1 [Compound 531]	Plant response rating, Velvetleaf	0
C=CCn1c(=O)on(C(=O)N(c2ccc(F)cc2)C(C)C(=O)OCC)c1=O (stereo not shown) [Compound 279]	Plant response rating, Velvetleaf	0
CCOC(=O)C=C(Cn1c(=O)on(C(=O)N(c2ccc(F)cc2F)C(C)C)c1=O)OCC [Compound 519]	Plant response rating, Velvetleaf	4
CC(C)=CCn1c(=O)on(C(=O)N(c2ccc(Cl)cc2)C(C)C)c1=O [Compound 545]	Plant response rating, Velvetleaf	6
CC(C)C(C)n1c(=O)on(C(=O)N(c2ccc(F)cc2)C(C)C)c1=O (stereo not shown) [Compound 316]	Plant response rating, Velvetleaf	2

Provide each entry's Plant response rating, Velvetleaf from the list below.
1. CC(C)=CCn1c(=O)on(C(=O)N(c2ccc(F)cc2)C(C)C)c1=O [Compound 288]
2. CC(C)N(C(=O)n1oc(=O)n(CCCN(C)C)c1=O)c1ccc(F)cc1 [Compound 323]

1: 1; 2: 0

---

System: corn
EXPERIMENT: Test B pre/postemergence corn
Type: in vivo, Zea mays
ASSAY CONDITIONS: Preemergence, Rate 250 g/ha; scale of 0 to 10 where 0 is no effect and 10 is complete control
Provide the recorded Plant response rating, Corn for the entries that follow.
Numbers only.

These solved cases illustrate the format of a correct answer.
SUBSTANCE SMILES	READOUT	OBSERVED MEASUREMENT
CC(C)N(C(=O)n1oc(=O)n(C2CCCCC2)c1=O)c1ccc(F)cc1	Plant response rating, Corn	4
CCN(C(=O)n1oc(=O)n(-c2ccc(C)cc2C)c1=O)C1CCCCC1	Plant response rating, Corn	0
CCN(C(=O)n1oc(=O)n(-c2c(C)cc(C)cc2C)c1=O)C1CCCCC1	Plant response rating, Corn	0

Here's the next entry for you.
Consider the compound COc1ccc(-n2c(=O)on(C(=O)N(c3ccc(F)cc3)C(C)C)c2=O)c(C)c1 and give its measured Plant response rating, Corn.
0

---

Provide the recorded Morningglory plant response rating for the entries that follow.
System: morningglory
EXPERIMENT: Test B pre/postemergence morningglory
Assay type: in vivo, Ipomoea hederacea
ASSAY CONDITIONS: Rate 62 g/ha, Postemergence; scale of 0 to 10 where 0 is no effect and 10 is complete control
One number for each entry.

SUBSTANCE SMILES	Morningglory plant response rating
COc1nc(OC)nc(N(C(=O)n2oc(=O)n(C(C)C)c2=O)C(C)C)n1	0

Provide each entry's Morningglory plant response rating from the list below.
1. Cc1nsc(Cl)c1Cn1c(=O)on(C(=O)N(c2ccc(F)cc2)C(C)C)c1=O
2. CCn1c(=O)on(C(=O)N(c2ccc(Cl)cc2)C(C)C)c1=O
3. CC(C)N(C(=O)n1oc(=O)n(Cc2cccs2)c1=O)c1ccccc1
4. Cc1nc(C)c(Cn2c(=O)on(C(=O)N(c3ccc(Cl)cc3)C(C)C)c2=O)s1
5. C=CCn1c(=O)on(C(=O)N(c2ccc(F)cc2)C2CCC2)c1=O
6. Cc1nn(C)c(C)c1-n1c(=O)on(C(=O)N(c2ccccc2)C(C)C)c1=O

8
0
8
1
0
4

---

Test system: pigweed
EXPERIMENT: Test B pre/postemergence pigweed
Assay type: in vivo, Amaranthus retroflexus
ASSAY CONDITIONS: Postemergence, Rate 500 g/ha; scale of 0 to 10 where 0 is no effect and 10 is complete control
READOUT: Plant response rating, Redroot pigweed
Numbers only.

COMPOUND	Plant response rating, Redroot pigweed
CC(=O)C(C)n1c(=O)on(C(=O)N(c2ccccc2)C(C)C)c1=O (stereo not shown) [Compound 576]	4
CCC(C)n1c(=O)on(C(=O)N(c2ccc(F)cc2)C(C)C)c1=O (stereo not shown) [Compound 613]	8
CC(C)N(C(=O)n1oc(=O)n(CC2=NOCCC2)c1=O)c1ccc(F)cc1 [Compound 601]	4

Here's the next entry for you.
Consider the compound CC(Cl)=CCn1c(=O)on(C(=O)N(c2ccccc2)C(C)C)c1=O [Compound 573] and give its measured Plant response rating, Redroot pigweed.
7

---

System: rape
EXPERIMENT: Test B pre/postemergence rape
Type: in vivo, Brassica napus
ASSAY CONDITIONS: Postemergence, Rate 62 g/ha; scale 0 to 10, 0 is no effect, 10 is complete control
Provide the recorded Rape plant response rating for the entries that follow.
Answers are plain numbers.

Provide each entry's Rape plant response rating from the list below.
1. CCN(C(=O)n1oc(=O)n(-c2c(C)cc(C)cc2C)c1=O)C1CCCCC1
2. C=CCn1c(=O)on(C(=O)N(c2ccccc2)C(C)C)c1=O
3. Cc1cccc(C)c1-n1c(=O)on(C(=O)N(c2ccccc2)C(C)C)c1=O
4. COc1ccc(-n2c(=O)on(C(=O)N(c3ccc(F)cc3)C(C)C)c2=O)c(C)c1
5. Cc1ccccc1-n1c(=O)on(C(=O)N(c2ccc(Cl)cc2)C(C)C)c1=O

1: 0; 2: 2; 3: 0; 4: 0; 5: 0

---

Provide the recorded Velvetleaf plant response rating for the entries that follow.
Tested on: velvetleaf
EXPERIMENT: Test B pre/postemergence velvetleaf
Format: in vivo, Abutilon theophrasti
ASSAY CONDITIONS: Rate 125 g/ha; Preemergence; scale of 0 to 10 where 0 is no effect and 10 is complete control
Give bare numbers.

Provide each entry's Velvetleaf plant response rating from the list below.
1. Cc1ccccc1-n1c(=O)on(C(=O)N(c2ccc(F)cc2)C(C)C2CC2)c1=O (stereo not drawn)
2. CC(C)N(C(=O)n1oc(=O)n(CC2CC2)c1=O)c1ccc(F)cc1
3. Cc1ccccc1-n1c(=O)on(C(=O)N(c2ccc(N(C)C)cc2)C(C)C)c1=O
4. CC(C)N(C(=O)n1oc(=O)n(C2CCCC2)c1=O)c1ccc(F)cc1F

1. 0
2. 4
3. 0
4. 0

---

Provide the recorded Velvetleaf plant response rating for the entries that follow.
System: velvetleaf
EXPERIMENT: Test B pre/postemergence velvetleaf
Assay type: in vivo, Abutilon theophrasti
ASSAY CONDITIONS: Preemergence, Rate 500 g/ha; scale 0 (no effect) to 10 (complete control)

COMPOUND	OBSERVED MEASUREMENT
C=CCn1c(=O)on(C(=O)N(c2ccccc2)C(C)C)c1=O	10
Cc1cccc(C)c1-n1c(=O)on(C(=O)N(c2ccccc2)C(C)C)c1=O	2
CC(C)N(C(=O)n1oc(=O)n(-c2cc(Cl)cc(Cl)c2)c1=O)C1=CCOCC1	0
CC(C)N(C(=O)n1oc(=O)n(C2CCCCC2C(F)(F)F)c1=O)c1ccc(F)cc1 (centres unmarked)	3

Here's the next entry for you.
Consider the compound CC(C)N(C(=O)n1oc(=O)n(-c2ccc(OC(F)(F)F)cc2)c1=O)C1=CCOCC1 and give its measured Velvetleaf plant response rating.
0

Hello, the source for this data is patent US6737383B1, in case you need it.
